These entries and their values trace back to the supplement of paper PMC12645437.

- test-system: T1, CRBN, Q96SW2;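 also: pooled lentiviral library of zinc finger degron-EGFP fusions in mCherry-positive Jurkat cells, FACS-sorted after compound exposure, with degron abundance counted by next-generation sequencing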
- T1 chain: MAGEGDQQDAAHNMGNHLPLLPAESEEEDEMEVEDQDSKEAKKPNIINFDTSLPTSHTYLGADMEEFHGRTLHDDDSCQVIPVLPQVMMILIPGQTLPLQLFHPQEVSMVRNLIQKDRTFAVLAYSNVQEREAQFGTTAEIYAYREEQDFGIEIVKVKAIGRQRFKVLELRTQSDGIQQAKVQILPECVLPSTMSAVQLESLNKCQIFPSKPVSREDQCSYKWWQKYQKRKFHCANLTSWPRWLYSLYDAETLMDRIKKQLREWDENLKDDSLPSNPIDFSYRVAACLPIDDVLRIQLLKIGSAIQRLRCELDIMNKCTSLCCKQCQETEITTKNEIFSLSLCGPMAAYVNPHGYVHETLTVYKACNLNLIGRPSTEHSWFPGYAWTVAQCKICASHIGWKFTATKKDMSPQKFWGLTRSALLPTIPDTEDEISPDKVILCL
- protocol-text: log2 fold change of degron read counts, EGFP-low vs EGFP+ sorted cells (limma voom), compound-induced degradation; higher = more compound-induced degradation of the degron-EGFP fusion; degrons are variants of IKZF1/3 zinc finger 2; compound dose not given here
- recorded-conditions: Jurkat; 18 h; compound: compound 19 (5-tert-butyl-thalidomide)
Over roughly 8,300 sequences, “log2 fold change of degron read counts, EGFP-low vs EGFP+ sorted cells (limma voom), compound-induced degradation” has its median near -1.1; the highest 2% begin near 3.2. Shown is part of a subset that was picked to be rich in the highest values.
Threshold rule: log2 fold change of degron read counts greater than or equal to -0.02 is y; below that, n.

seq-text	label
FQCNICGASFTQKGNLLRHIKL [46F_47Q_49N_50I_52G_53A_54S_55F_67L_, Q9UKT9]	y
FYCEICGAQFTQKGNLLRHIKL [46F_47Y_49E_50I_52G_53A_54Q_55F_67L_, Q9UKT9]	y
LECPICGFKCTQKGNLLRHIKL [46L_47E_49P_50I_52G_53F_54K_55C_67L_, Q9UKT9]	y

Prompt line: API: above_or_equal(metric=log2 fold change of degron read counts, cutoff=-0.02) for item FACNICGASFTQKGNLLRHIKL [46F_47A_49N_50I_52G_53A_54S_55F_67L_, Q9UKT9]
Response line: y

Prompt line: API: above_or_equal(metric=log2 fold change of degron read counts, cutoff=-0.02) for item FFCEICGAQFTQKGNLLRHIKL [46F_47F_49E_50I_52G_53A_54Q_55F_67L_, Q9UKT9]
Response line: y

Prompt line: API: above_or_equal(metric=log2 fold change of degron read counts, cutoff=-0.02) for item LRCPICGFKCTQKGNLLRHIKL [46L_47R_49P_50I_52G_53F_54K_55C_67L_, Q9UKT9]
Response line: n

Prompt line: API: above_or_equal(metric=log2 fold change of degron read counts, cutoff=-0.02) for item FTCEICGAQFTQKGNLLRHIKL [46F_47T_49E_50I_52G_53A_54Q_55F_67L_, Q9UKT9]
Response line: y

Prompt line: API: above_or_equal(metric=log2 fold change of degron read counts, cutoff=-0.02) for item LDCPICGFKCTQKGNLLRHIKL [46L_47D_49P_50I_52G_53F_54K_55C_67L_, Q9UKT9]
Response line: y

Prompt line: API: above_or_equal(metric=log2 fold change of degron read counts, cutoff=-0.02) for item FMCEICGAQFTQKGNLLRHIKL [46F_47M_49E_50I_52G_53A_54Q_55F_67L_, Q9UKT9]
Response line: y

Prompt line: API: above_or_equal(metric=log2 fold change of degron read counts, cutoff=-0.02) for item LHCPICGFKCTQKGNLLRHIKL [46L_47H_49P_50I_52G_53F_54K_55C_67L_, Q9UKT9]
Response line: y

Prompt line: API: above_or_equal(metric=log2 fold change of degron read counts, cutoff=-0.02) for item FRCEICGAQFTQKGNLLRHIKL [46F_47R_49E_50I_52G_53A_54Q_55F_67L_, Q9UKT9]
Response line: y
